// provenance: patent US20240327429A1

- Tested on: human hepatocytes
- assay.info: Evaluation of hepatocyte clearance (metabolic stability)
- Format: in vitro ADME
- particulars: 1 μM test compound, 5% human serum, Table 3
Group membership follows Qh [%] per the scheme c1: < 20%; c2: ≥ 20% and < 40%; c3: ≥ 40%

Study these solved cases before continuing.
- molecule.smiles: "O=c1c2scnc2nc(SCc2ccc(Cl)cc2)n1-c1cnc(O)nc1"
  category.label: "c1"
- molecule.smiles: "O=c1c2scnc2nc(SCc2ccc(C(F)(F)F)cc2F)n1-c1cnc(O)nc1"
  category.label: "c1"
- molecule.smiles: "O=c1c2scnc2nc(SCc2c(F)cc(F)cc2F)n1-c1cc(F)c(O)c(F)c1"
  category.label: "c3"
- molecule.smiles: "O=c1c2scnc2nc(SCc2c(F)cc(F)cc2F)n1-c1ccc(O)c(F)c1F"
  category.label: "c3"

Q. Lab note: which band did O=c1c2scnc2nc(SCc2c(F)cc(F)cc2F)n1-c1ccc(O)cn1 land in?
A. c3

Q. Lab note: which band did O=c1c2scnc2nc(SCc2ccc(C(F)(F)F)cc2Cl)n1-c1cnc(O)c(F)c1 land in?
A. c2

Q. Lab note: which band did O=c1c2scnc2nc(SCc2ccc(C(F)(F)F)cc2)n1-c1ccc(O)nc1 land in?
A. c2

====

- tested.target: human NOX5 (hNOX5) (Homo sapiens, UniProt Q96PH1)
- Sequence (Q96PH1 whole entry): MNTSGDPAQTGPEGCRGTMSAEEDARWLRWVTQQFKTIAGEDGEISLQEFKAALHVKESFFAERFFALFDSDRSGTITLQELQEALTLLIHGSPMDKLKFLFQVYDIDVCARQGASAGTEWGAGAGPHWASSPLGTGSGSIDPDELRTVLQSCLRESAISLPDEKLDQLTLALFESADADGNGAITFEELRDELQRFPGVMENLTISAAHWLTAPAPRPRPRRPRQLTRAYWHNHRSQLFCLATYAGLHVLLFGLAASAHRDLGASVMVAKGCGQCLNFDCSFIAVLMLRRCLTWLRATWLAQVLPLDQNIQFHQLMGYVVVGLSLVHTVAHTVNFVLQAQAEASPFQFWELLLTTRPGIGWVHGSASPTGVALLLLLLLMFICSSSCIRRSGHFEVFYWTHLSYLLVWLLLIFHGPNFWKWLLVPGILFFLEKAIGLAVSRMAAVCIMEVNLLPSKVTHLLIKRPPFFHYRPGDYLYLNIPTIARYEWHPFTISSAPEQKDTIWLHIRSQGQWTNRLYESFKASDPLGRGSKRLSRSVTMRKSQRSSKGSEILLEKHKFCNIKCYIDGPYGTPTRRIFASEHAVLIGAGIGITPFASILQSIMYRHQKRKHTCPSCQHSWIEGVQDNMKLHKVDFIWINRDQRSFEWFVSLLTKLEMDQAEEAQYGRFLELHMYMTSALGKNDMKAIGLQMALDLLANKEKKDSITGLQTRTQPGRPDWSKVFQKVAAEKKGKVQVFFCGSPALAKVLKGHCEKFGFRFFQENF
- assay.info: NOX5 inhibition assay (L-012), HEK293 cells stably overexpressing human NOX5
- particulars: HEK293-hNOX5, PMA stimulated
value.kind: pIC50
Numbers only, as −log10 of the molar value.

- compound: "O=c1c2scnc2nc(SCc2c(F)cc(F)cc2F)n1-c1c(F)cc(O)cc1F [Example 13]"
  recorded.value: 5.29

Q. What value of pIC50 has been recorded for this entry: O=c1c2scnc2nc(SCc2ccc(F)cc2Br)n1-c1cnc(O)c(F)c1 [Example 44]
A. 4.17

====

- tested.target: human NOX1 (hNOX1) (Homo sapiens, UniProt Q9Y5S8)
- Construct: pLV-CMV-hNOX1-puro (NM_007052.5)
- Sequence (Q9Y5S8 1-564): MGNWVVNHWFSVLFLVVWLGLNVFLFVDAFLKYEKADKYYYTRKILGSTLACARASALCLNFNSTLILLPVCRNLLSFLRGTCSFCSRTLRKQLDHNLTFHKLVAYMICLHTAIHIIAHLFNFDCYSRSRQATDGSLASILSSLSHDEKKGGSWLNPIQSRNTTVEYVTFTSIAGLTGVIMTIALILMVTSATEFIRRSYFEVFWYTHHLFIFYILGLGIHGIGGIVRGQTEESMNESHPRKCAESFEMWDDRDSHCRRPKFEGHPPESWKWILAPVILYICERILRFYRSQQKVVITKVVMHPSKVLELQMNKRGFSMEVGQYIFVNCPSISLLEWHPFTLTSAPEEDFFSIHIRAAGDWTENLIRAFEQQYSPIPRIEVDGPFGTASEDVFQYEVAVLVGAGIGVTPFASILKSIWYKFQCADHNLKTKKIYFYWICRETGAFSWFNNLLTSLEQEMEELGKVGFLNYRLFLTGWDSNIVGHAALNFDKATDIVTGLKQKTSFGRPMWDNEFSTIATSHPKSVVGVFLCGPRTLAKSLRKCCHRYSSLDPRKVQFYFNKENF
- Sequence (P13498 2-195 partner limits assumed): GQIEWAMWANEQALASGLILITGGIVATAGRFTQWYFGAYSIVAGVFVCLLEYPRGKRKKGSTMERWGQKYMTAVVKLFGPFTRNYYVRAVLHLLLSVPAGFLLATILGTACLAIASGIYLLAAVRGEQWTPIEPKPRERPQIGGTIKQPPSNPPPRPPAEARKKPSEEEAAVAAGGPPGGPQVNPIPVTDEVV
- assay.info: NOX1 inhibition assay (L-012), HEK293 cells stably overexpressing human NOX1
- particulars: HEK293-hNOX1, PMA stimulated
For each record, write down the corresponding IC50.
Give bare numbers, in µM.

- molecule.smiles: "O=c1c2scnc2nc(SCc2c(F)cc(F)cc2F)n1-c1ccc(O)c(Cl)c1"
  unit.info: "µM"
  IC50: 15
- molecule.smiles: "Cc1cc(Cl)ccc1CSc1nc2ncsc2c(=O)n1-c1cnc(O)c(F)c1"
  unit.info: "µM"
  IC50: 18.8

Q. What value of IC50 has been recorded for this entry: Cc1cc(F)ccc1CSc1nc2ncsc2c(=O)n1-c1ccc(O)nn1
A. 11
